target: deoxythymidine diphosphate glucose-4,6-dehydratase (dTGD) (Actinosynnema pretiosum, UniProt A0A290ZDY1); construct: recombinant His-tagged, from pET30a in E. coli BL21(DE3); test: SPR (Biacore 8K, CM5 chip); also enzyme inhibition with KI =[…]
Sequence (A0A290ZDY1 1-330): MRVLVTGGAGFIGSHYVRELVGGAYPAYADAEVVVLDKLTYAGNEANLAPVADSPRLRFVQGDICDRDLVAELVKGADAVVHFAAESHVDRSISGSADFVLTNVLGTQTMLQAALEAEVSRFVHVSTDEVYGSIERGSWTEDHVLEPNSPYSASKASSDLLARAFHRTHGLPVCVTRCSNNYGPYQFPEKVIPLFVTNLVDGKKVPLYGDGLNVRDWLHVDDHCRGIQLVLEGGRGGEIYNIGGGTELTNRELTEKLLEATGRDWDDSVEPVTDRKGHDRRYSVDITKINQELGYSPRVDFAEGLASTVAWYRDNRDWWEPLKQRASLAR
measured-attribute: Kd (µM)
Quick reminder: number only, in µM, skip the unit.

Q) Supply recorded Kd for COc1cc2cc(c1Cl)N(C)C(=O)C[C@H](OC(=O)C(C)C)[C@]1(C)O[C@H]1[C@H](C)[C@@H]1C[C@@](O)(NC(=O)O1)[C@H](OC)/C=C/C=C(\C)C2 here.
A) 360
